- Test system: A498 renal
- Experimental Details: NCI tumour cell line growth inhibition, 48 h
Endpoint Label: TGI

// lookup TGI | system=A498 renal | key= Clc1ccc(Cl)c(N=Nc2cc3c4c(c2)CCN4CCC3)c1
> 10 µM

// lookup TGI | system=A498 renal | key= COC(=O)C(=O)C(C(=O)OC)C(=O)C(=O)Nc1c(C)cccc1C (centres undefined)
> 100 µM

// lookup TGI | system=A498 renal | key= CC1=CC2C(C=C1)S(=O)(=O)N1CC21c1ccccc1 (centres undefined)
> 100 µM

// lookup TGI | system=A498 renal | key= CCOC(=O)[C@@H](C)C[C@H](Cc1ccccc1)NC(=O)c1csc([C@@H](C[C@H](C(C)C)N(C)C(=O)[C@@H](NC(=O)[C@H]2CCCCN2C)C(C)(C)CC)OC(C)=O)n1
0.0114 µM

More entries:
// lookup TGI | system=A498 renal | key= Nc1ccc2n[se]nc2c1
> 100 µM

// lookup TGI | system=A498 renal | key= CC(C)=CCc1cc2c(cc1O)C1=C(C(=O)C3=C(C1=O)S(=O)(=O)CCN3)C(C=C(C)C)O2 (centres undefined)
5.96 µM

// lookup TGI | system=A498 renal | key= O=C(O)c1nc2ccccc2nc1Nc1ccc(Cl)c(Cl)c1
41.6 µM

// lookup TGI | system=A498 renal | key= CCOC(=O)c1c2ccc(/C=C/c3ccccn3)ccc-2c(C(=O)OCC)c1N
> 100 µM

// lookup TGI | system=A498 renal | key= c1cc(N[C@@H]2CCNC2)nc(-c2cnc3ccc(-c4cn[nH]c4)cn23)c1
29 µM

// lookup TGI | system=A498 renal | key= CCCCN(CCCC)C(=O)[C@H](CC)[C@@H]1CC[C@@H](C)[C@@H]([C@H](C)[C@@H](O)[C@@H](C)C(=O)[C@H](CC)C2O[C@]3(C=C[C@@H](O)[C@]4(CC[C@@](C)([C@H]5CC[C@](O)(CC)[C@H](C)O5)O4)O3)[C@H](C)C[C@@H]2C)O1 (some centres undefined)
6.24 µM
